target-entity: SUDV GP [change] (Sudan ebolavirus) (UniProt Q7T9D9)
recorded-endpoint: EC50 (µg/mL)

binder="EBOV-507 (antibody, V domains shown) VH: QVQLVQSGAEVKKPGASVKVSCKASGYTFNNYLINWVRQAPGQGLEWMGWINPHSGGTEYAQQFQGRLTVTRDTSIRTAYMELRGLTFDDSAMYYCWIWFRSETFDFWGQGTLVTVSS VL: DIQMTQSPSAMSASVGDRVTITCRASQDISNYLAWFQQKPGQGPKRLIFEASILHSGVPSRFSGSGSGTEFTLTISSLQPEDFATYYCLQHNTYLTFGQGTKVEIK" reading_unit=µg/mL test_result=0.002
binder="EBOV-442 (antibody, V domains shown) VH: EVQLVESGGGLVKPGGSLRLSCTGSGGTGFTFKYAGMSWVRQAPGKGPEWIGRIKSRIDGGTTDYAAPVKDRFIVSRDDSRNTLYLQMNSLKTEDTAVYYCATGSGKGPSASFGESYYYYDFINVWGKGTTVTVSS VL: ESVLTQSPGTLSLSPGERATLSCRASQSISRKYLAWYQQKPGQAPRLLIYGSSSRATGIPDRFSGSGSGTDFTLTISRLEPEDFAVYYCHQYESSPWTFGQGTKVEIK" reading_unit=µg/mL test_result=0.006
binder="EBOV-511 (antibody, V domains shown) VH: QLQLQESGPGLVKPSETLSLSCTVSGDSISANNYFWGWIRQPPGKELEWIGSIHNSGSTYYNPSLKSRVTTSVDTSRTQFSLKLHSVTAADAAIYYCARHLAPISGVIFIPSFFDSWGQGTLVTVSS VL: EIVMTQSPATLSVSPGERATLSCRASQSVSSNLAWYQQRPGQAPRLLIFDASTRATGVPARFSGSGSGTEFTLTISSLQSEDFALYYCQQYNDWPPRLTFGGGTKVEIK" reading_unit=µg/mL test_result=0.387
binder="EBOV-446 (antibody, V domains shown) VH: QVQLVQSGAEVKKPGASVKVSCKASGYTFTDYYIYWVRQAPGQGLEWMGWLNPNSGGTDYAQKFQGRVTMTRDTSIRTAYMDLSRLRSDDTAVYYCARGRRHGAYVDWGQGTLVTVSS VL: DIQLTQSPSFLSASVGDRVTITCRASQGISTYLAWYQQKPGKAPNLLIYDTSTLQSGVPSRFSGSASGTEFTLTISSLQPEDFATYYCQQLNFYLGGLTFGQGTRLEIK" reading_unit=µg/mL test_result=0.722
binder="EBOV-508 (antibody, V domains shown) VH: QVQLVQSGAEVKKPGASVKVSCKASGYTFINYYMHWVRQAPGQGLEWMGTINPSTGRPNYAQKFQGRVTLTRDTSTTTVDMELSSLTSEDTAVYYCVSFQFYFDYWGQGTLVTVSS VL: DIQMTQSPSAMSPSVGDRVTITCRASQGINNYLAWFQQKPGKVPKRLIYAASNLQSGVPSRFSGSGSGTEFTLTISSLQPEDFATYYCLQHNSYPWTFGQGTKVEIN" reading_unit=µg/mL test_result=0.003
binder="EBOV-517 (antibody, V domains shown) VH: EVQLVESGGGLVQPGGSLRLSCGASGFTFNKYWMTWVRQAPGKGLEWVANINQDGSEKYFAESVKGRFTVSRDNAKNSLYLQMNSLRAEDTAVYYCARGASIEVEILYYYHMDVWGKGTLVTVSS VL: EIVMTQSPATLSVSPGERATLSCRASQSITTHLAWYQQKPGQAPRLLIYDTSTRATGIPARFSGSGSGTEFTLTISNMQSEDFAVYYCQQYHTWPPLTFGGGTKVEIK" reading_unit=µg/mL test_result=1.69
